These entries and their values trace back to PubChem BioAssay AID1918934.

I'd appreciate it if you could supply viability, T/C values for the items below.
System: 292921-168-R-J2-PDC complex spheroid viability;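 also: seven day compound exposure before luminescent viability read; 100% = DMSO vehicle control wells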
Experiment: Anticancer human tumor 292921-168-R-J2-PDC patient-derived pancreatic carcinoma cell line growth inhibition
Conditions: second compound 10 µM; first compound 3.16 µM; stronger effect = lower value
Description: Multicellular complex tumor spheroid response to LSD1 Inhibitor Iadademstat in combination with a variety of drugs and investigational agents in selected tumor cell lines The current study was undertaken to assess response to LSD1 inhibitors in combination with standard-of-care drugs and investigational agents in solid tumor complex spheroid models as well as in the K-562 leukemia. […] Compounds. […] If the clinical Cmax for an agent had not been determined, the highest concentration tested was 10 microM. […]
Response body: numeric value in %, unit text excluded.

# input # get_value(readout='viability, T/C', item= CC1COCCN1c1cc(C2(S(C)(=N)=O)CC2)nc(-c2ccnc3[nH]ccc23)n1 (stereo not given) + NC1CCC(NC2CC2c2ccccc2)CC1 )
# output 14

# input Can you look up the measured viability, T/C of COc1ccc([C@@H](O)c2cc(-c3ncnc4cc(N5CCOCC5)ccc34)c(F)cc2Cl)nn1 + NC1CCC(NC2CC2c2ccccc2)CC1 for me?
# output 18.1

# input # viability, T/C lookup, item CC1(C)CCC(CN2CCN(c3ccc(C(=O)NS(=O)(=O)c4ccc(NCC5CCOCC5)c([N+](=O)[O-])c4)c(Oc4cnc5[nH]ccc5c4)c3)CC2)=C(c2ccc(Cl)cc2)C1 + NC1CC1c1ccc(-c2cccc(O)c2)cc1
# output 12.1

# input Recorded viability, T/C for CC(C)c1c(-c2ccccc2)nc2c(C#N)c[nH]n2c1=O + NC1CCC(NC2CC2c2ccccc2)CC1 , please?
# output 45.6

# input Using the record for COc1ccc([C@@H](O)c2cc(-c3ncnc4cc(N5CCOCC5)ccc34)c(F)cc2Cl)nn1 + NC1CC1c1ccc(-c2cccc(O)c2)cc1 , report its viability, T/C.
# output 15.5

# input What value of viability, T/C has been reported for the following molecule? O=C(c1cc(Cc2n[nH]c(=O)c3ccccc23)ccc1F)N1CCN(C(=O)C2CC2)CC1 + NC1CCC(NC2CC2c2ccccc2)CC1
# output 42.9

# input Entry O=C(c1cc(Cc2n[nH]c(=O)c3ccccc23)ccc1F)N1CCN(C(=O)C2CC2)CC1 + NC1CC1c1ccc(-c2cccc(O)c2)cc1 : reported viability, T/C = ?
# output 34

# input Can you look up the measured viability, T/C of CC1(C)CCC(CN2CCN(c3ccc(C(=O)NS(=O)(=O)c4ccc(NCC5CCOCC5)c([N+](=O)[O-])c4)c(Oc4cnc5[nH]ccc5c4)c3)CC2)=C(c2ccc(Cl)cc2)C1 + NC1CCC(NC2CC2c2ccccc2)CC1 for me?
# output 12.7

# input Consider the molecule CC(C)c1c(-c2ccccc2)nc2c(C#N)c[nH]n2c1=O + NC1CC1c1ccc(-c2cccc(O)c2)cc1 and give its measured viability, T/C.
# output 49.8

# input Which viability, T/C value belongs to CC1COCCN1c1cc(C2(S(C)(=N)=O)CC2)nc(-c2ccnc3[nH]ccc23)n1 (stereo not given) + NC1CC1c1ccc(-c2cccc(O)c2)cc1 ?
# output 12.2
